The values you see were collected from PubChem BioAssay.

Assay: reduction of polyQ htt aggregates in cells – imaging, exon1htt(103Q)mCFP cells, high-content imaging, primary screen (AID 483);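 further: compound exposure lasted 3 days before fixation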
Conditions: exon1htt(103Q)mCFP cell line, aggregate imaging, at 2 µM; active compounds read high
Classification field: enter 1 (yes) for inhibition of aggregation values not below -10%, 0 (no) for values below it.

Reported inhibition of aggregation at or above -10%? "COc1cccc(OCCn2ccnc2)c1" 1 (yes)

Hi team, for "CC1=Nn2c(nnc2-c2cc(-c3ccccc3)n[nH]2)SC1" , is the recorded inhibition of aggregation at or above -10%? 1 (yes)

Others:
I'd appreciate it if you could say whether "CCOc1ccc(NC(=O)CN2CCN(CC(=O)c3ccc(OCC)cc3)CC2)cc1" has inhibition of aggregation at least equal to -10%. 0 (no)

State whether the measured inhibition of aggregation reaches -10%, counting equality as reaching it, for "CCCCOC(=O)Nc1nccs1" 1 (yes)

Quick check, inhibition of aggregation >= -10%? Cc1nc2ccc(C(=O)O)cc2c2c1CC(C)S2 (centres undefined) 1 (yes)

Form field: inhibition of aggregation at least -10%? Entry: O=C(NCC(c1cccnc1)N1CCN(c2ccc(F)cc2)CC1)OCc1ccccc1 (centres undefined) 1 (yes)

State whether the measured inhibition of aggregation reaches -10%, counting equality as reaching it, for "CCn1cnc2cc(NCc3cccc(OC)c3O)ccc21" 1 (yes)

Determine whether measured inhibition of aggregation meets or exceeds -10% for "CCn1c(SCC(=O)N2CCN(c3ccc(Cl)cc3)CC2)nc2ccccc2c1=O" 1 (yes)

Can COC(=O)c1ccc(C2C(C#N)=C(N)Oc3cc(C)n(C)c(=O)c32)cc1 (centres undefined) be said to have inhibition of aggregation at or above -10%? 1 (yes)

Check this compound for inhibition of aggregation at or above -10%: "O=C(Nc1ccc2c(c1)nc1n2CCSC1)c1ccccc1" 1 (yes)

Does the compound "CCCS(=O)(=O)C(=C1Nc2ccccc2N1)S(=O)(=O)CCC" have recorded inhibition of aggregation that is -10% or more? 0 (no)

Is the recorded value of inhibition of aggregation equal to or greater than -10% for this compound? "CCOCCCNC(=O)c1c[nH]c2ccc(S(=O)(=O)Nc3cccc(OC)c3)cc2c1=O" 0 (no)

Determine whether this compound has inhibition of aggregation no lower than -10%: "CC(=O)N1C(=O)C2(Nc3ccccc3N2)c2ccccc21" 1 (yes)

Does inhibition of aggregation meet or surpass -10% for "CCOC(=O)CS(=O)(=O)c1nc(-c2ccccc2)cc(C(F)(F)F)n1" ? 0 (no)

Is the recorded value of inhibition of aggregation equal to or greater than -10% for this compound? "O=C(c1cccs1)N(Cc1ccco1)Cc1cc2ccccc2[nH]c1=O" 1 (yes)

Is inhibition of aggregation for "O=C(CSc1nc(-c2ccco2)cc(C(F)(F)F)n1)N1CCCc2ccccc21" at or above -10%? 1 (yes)
